# test: chemical genetic growth profiling, strain panel (AID 1159580);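 further: tested at 20 µM; growth read once vehicle control cultures reached saturation at 30 °C; 1 = growth at the plate median or of vehicle wells; lower values mean less growth of the strain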
# test-parameters: S. cerevisiae deletion strains, growth OD, locus YGR078C, strain PAC10, hits give low values
Screen size: about 5,500 compounds; about 2,000 (36%) were called active. Another 18% or so got no clear call; they are omitted. The list shows a part of the results.
readout-kind: normalized growth
Number only, please.

Example compounds with recorded normalized growth:
CC(CCC(=O)O)[C@H]1CCC2C3CC[C@@H]4CCCC[C@]4(C)C3CC[C@@]21C (stereo not given in full): 1.02
C[C@]12N[C@H](Cc3ccccc31)c1ccccc12: 0.973
Cc1ccc(OCc2nnc(SCC(=O)Nc3cccc4c3OCO4)n2-c2ccccc2)c2c1CCC2: 1
S=C(Nc1ccccc1)Nc1nccs1: 0.988
COC(=O)CCC(C)[C@H]1CCC2C3C(C[C@H](O)[C@@]21C)[C@@]1(C)CC[C@@H](O)C[C@H]1C[C@H]3O (stereo not given in full): 1
CC(CN1c2ccccc2Sc2cccnc21)N(C)C (stereo not given): 1.02

Looking for the measured normalized growth of C[C@H]1C2Cc3ccc(O)cc3[C@]1(C)CCN2CC1CC1 , can you help?
1.01

Looking for the measured normalized growth of CN1CCN(c2nc3cc(C(F)(F)F)ccc3n3cccc23)CC1 , can you help?
1.01

Looking for the measured normalized growth of Cc1ccc(/C(N)=N\O)cc1F , can you help?
1.01

Looking for the measured normalized growth of CCN(CCCc1ccccc1)CCCc1ccccc1 , can you help?
1

Looking for the measured normalized growth of COc1cc(OC)c2c3c1C(=O)c1c(OC)cc(C)c4c(OC)cc(c-3c14)C(C)(C)C2=O , can you help?
1.01

Looking for the measured normalized growth of O=c1cc(-c2ccc(O)c(O)c2)oc2cc(O)cc(O)c12 , can you help?
0.989

Looking for the measured normalized growth of CCC(=O)c1ccc2c(c1)N(CC(C)N(C)C)c1ccccc1S2 (stereo not given) , can you help?
0.992
